All figures here come from the supplement of paper PMC9112550.

# System: Escherichia coli TOP10
# test.protocol: shrunken log2 fold change of peptide-encoding DNA abundance (4.5 h post-induction vs induction); higher = less antimicrobial activity (less host growth inhibition)
# cond: time post-induction: 4.5 h; library: site-saturation at positions 5, 18, 19, 20
# shrunken log2 fold change per entry

# primary.sequence, shrunken log2 fold change
measured = [
    ("RRIRHRPPRLPRPRPRPKAAPRP", 0.0902),
    ("RRIRARPPRLPRPRPRPSDDPRP", 0.282),
    ("RRIRPRPPRLPRPRPRPMTPPRP", 0.165),
    ("RRIRFRPPRLPRPRPRPHMEPRP", -0.405),
    ("RRIRLRPPRLPRPRPRPHIFPRP", -0.747),
    ("RRIRARPPRLPRPRPRPHSMPRP", 0.104),
    ("RRIRCRPPRLPRPRPRPKSMPRP", -0.541),
    ("RRIRIRPPRLPRPRPRPVPVPRP", 0.0789),
]

----------
# System: Escherichia coli TOP10
# test.protocol: shrunken log2 fold change of peptide-encoding DNA abundance (4.5 h post-induction vs induction); higher = less antimicrobial activity (less host growth inhibition)
# cond: time post-induction: 4.5 h; library: site-saturation at positions 5, 18, 19, 20
Respond with true (1) for shrunken log2 fold change values of -0.05 and above, false (0) for values below.

# primary.sequence, class
data = [
    ("RRIRARPPRLPRPRPRPFTRPRP", "true (1)"),
    ("RRIRLRPPRLPRPRPRPLAMPRP", "false (0)"),
    ("RRIRKRPPRLPRPRPRPNVWPRP", "true (1)"),
    ("RRIRMRPPRLPRPRPRPCYFPRP", "false (0)"),
    ("RRIRSRPPRLPRPRPRPSPMPRP", "false (0)"),
    ("RRIRGRPPRLPRPRPRPLNTPRP", "true (1)"),
    ("RRIRDRPPRLPRPRPRPINDPRP", "true (1)"),
    ("RRIRFRPPRLPRPRPRPGTVPRP", "true (1)"),
    ("RRIRKRPPRLPRPRPRPTHVPRP", "false (0)"),
    ("RRIRTRPPRLPRPRPRPNPDPRP", "true (1)"),
    ("RRIRERPPRLPRPRPRPCTGPRP", "false (0)"),
    ("RRIRPRPPRLPRPRPRPWKIPRP", "false (0)"),
    ("RRIRLRPPRLPRPRPRPTYSPRP", "false (0)"),
    ("RRIRGRPPRLPRPRPRPMFEPRP", "true (1)"),
]

----------
# System: Escherichia coli TOP10
# test.protocol: shrunken log2 fold change of peptide-encoding DNA abundance (4.5 h post-induction vs induction); higher = less antimicrobial activity (less host growth inhibition)
# cond: time post-induction: 4.5 h; library: site-saturation at positions 5, 18, 19, 20

# primary.sequence, shrunken log2 fold change
rows = [
    ("RRIRTRPPRLPRPRPRPVGVPRP", 0.234),
    ("RRIRVRPPRLPRPRPRPFTFPRP", -0.0282),
    ("RRIRLRPPRLPRPRPRPHGLPRP", 0.123),
    ("RRIRNRPPRLPRPRPRPMQPPRP", -0.000687),
    ("RRIRQRPPRLPRPRPRPHWCPRP", 0.1),
    ("RRIRLRPPRLPRPRPRPMSPPRP", 0.0855),
    ("RRIRYRPPRLPRPRPRPFHNPRP", -0.451),
    ("RRIRYRPPRLPRPRPRPYDFPRP", -0.138),
]

----------
# System: Escherichia coli TOP10
# test.protocol: shrunken log2 fold change of peptide-encoding DNA abundance (4.5 h post-induction vs induction); higher = less antimicrobial activity (less host growth inhibition)
# cond: time post-induction: 4.5 h; library: site-saturation at positions 5, 18, 19, 20
Kindly return yes if reported shrunken log2 fold change is no lower than -0.09; return no if it is lower.

# primary.sequence, class
measured = [
    ("RRIRLRPPRLPRPRPRPKFSPRP", "yes"),
    ("RRIRARPPRLPRPRPRPGNTPRP", "yes"),
    ("RRIRRRPPRLPRPRPRPMCIPRP", "no"),
    ("RRIRDRPPRLPRPRPRPKYGPRP", "yes"),
    ("RRIRIRPPRLPRPRPRPGNGPRP", "yes"),
    ("RRIRERPPRLPRPRPRPGTLPRP", "no"),
    ("RRIRKRPPRLPRPRPRPAHLPRP", "yes"),
    ("RRIRNRPPRLPRPRPRPDQRPRP", "yes"),
    ("RRIRERPPRLPRPRPRPEYNPRP", "no"),
    ("RRIRVRPPRLPRPRPRPSEFPRP", "no"),
    ("RRIRKRPPRLPRPRPRPKFRPRP", "yes"),
    ("RRIRYRPPRLPRPRPRPLNMPRP", "no"),
    ("RRIRFRPPRLPRPRPRPIGYPRP", "no"),
    ("RRIRTRPPRLPRPRPRPTNPPRP", "no"),
    ("RRIRARPPRLPRPRPRPYFRPRP", "no"),
    ("RRIRSRPPRLPRPRPRPYPGPRP", "no"),
    ("RRIRKRPPRLPRPRPRPHYEPRP", "yes"),
    ("RRIRPRPPRLPRPRPRPGHHPRP", "yes"),
    ("RRIRPRPPRLPRPRPRPWDHPRP", "no"),
    ("RRIRPRPPRLPRPRPRPRFYPRP", "yes"),
    ("RRIRSRPPRLPRPRPRPWTFPRP", "no"),
    ("RRIRPRPPRLPRPRPRPWIVPRP", "no"),
    ("RRIRNRPPRLPRPRPRPHYIPRP", "no"),
    ("RRIRHRPPRLPRPRPRPWSRPRP", "yes"),
    ("RRIRYRPPRLPRPRPRPDPKPRP", "no"),
    ("RRIRNRPPRLPRPRPRPYFKPRP", "no"),
    ("RRIRKRPPRLPRPRPRPFHKPRP", "yes"),
    ("RRIRIRPPRLPRPRPRPTLHPRP", "no"),
    ("RRIRSRPPRLPRPRPRPHAVPRP", "yes"),
    ("RRIRIRPPRLPRPRPRPIWYPRP", "no"),
    ("RRIRRRPPRLPRPRPRPLSIPRP", "no"),
    ("RRIRSRPPRLPRPRPRPFAVPRP", "no"),
]

----------
# System: Escherichia coli TOP10;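 note: peptides expressed intracellularly from a pBAD plasmid library in pooled LB shake-flask culture, induced with 0.3% L-arabinose, DNA abundance read by NGS, three biological replicates, DESeq2 with apeglm shrinkage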
# test.protocol: shrunken log2 fold change of peptide-encoding DNA abundance (4.5 h post-induction vs induction); higher = less antimicrobial activity (less host growth inhibition)
# cond: time post-induction: 4.5 h; library: site-saturation at positions 5, 18, 19, 20
The entries below come with measured shrunken log2 fold change values attached.

# primary.sequence, shrunken log2 fold change
rows = [
    ("RRIRGRPPRLPRPRPRPGEGPRP", 1.15),
    ("RRIRIRPPRLPRPRPRPMNCPRP", 0.0904),
    ("RRIRQRPPRLPRPRPRPYSSPRP", -0.751),
    ("RRIRTRPPRLPRPRPRPLCAPRP", 0.0615),
    ("RRIRFRPPRLPRPRPRPKNPPRP", -0.00149),
    ("RRIRMRPPRLPRPRPRPPMRPRP", 1.62),
    ("RRIRRRPPRLPRPRPRPKMNPRP", -0.0665),
    ("RRIRVRPPRLPRPRPRPKRIPRP", -0.114),
    ("RRIRCRPPRLPRPRPRPMLDPRP", 0.0729),
    ("RRIRYRPPRLPRPRPRPDSIPRP", -0.0267),
    ("RRIRCRPPRLPRPRPRPNSMPRP", -0.745),
    ("RRIRVRPPRLPRPRPRPEGPPRP", 0.239),
    ("RRIRRRPPRLPRPRPRPLPYPRP", -0.0149),
    ("RRIRFRPPRLPRPRPRPCYYPRP", -0.401),
    ("RRIRFRPPRLPRPRPRPFPQPRP", -0.173),
    ("RRIRKRPPRLPRPRPRPQTRPRP", 0.358),
    ("RRIRMRPPRLPRPRPRPQNNPRP", -0.13),
    ("RRIRNRPPRLPRPRPRPEFLPRP", 0.00817),
    ("RRIRHRPPRLPRPRPRPLTTPRP", -0.142),
    ("RRIRNRPPRLPRPRPRPSWNPRP", -0.191),
    ("RRIRNRPPRLPRPRPRPYGVPRP", -0.00804),
    ("RRIRDRPPRLPRPRPRPWLAPRP", 0.171),
    ("RRIRMRPPRLPRPRPRPSYIPRP", -0.275),
    ("RRIRLRPPRLPRPRPRPWWNPRP", -0.426),
    ("RRIRPRPPRLPRPRPRPWFNPRP", -0.541),
    ("RRIRTRPPRLPRPRPRPSMAPRP", 0.444),
    ("RRIRYRPPRLPRPRPRPIWPPRP", -0.00922),
    ("RRIRSRPPRLPRPRPRPPNTPRP", 0.158),
    ("RRIRCRPPRLPRPRPRPWCRPRP", -0.282),
    ("RRIRQRPPRLPRPRPRPAKIPRP", 0.00963),
    ("RRIRQRPPRLPRPRPRPQCAPRP", -0.183),
    ("RRIRFRPPRLPRPRPRPQSMPRP", -0.434),
    ("RRIRIRPPRLPRPRPRPLGHPRP", -0.425),
    ("RRIRQRPPRLPRPRPRPSWSPRP", -0.185),
    ("RRIRPRPPRLPRPRPRPVTEPRP", -0.027),
    ("RRIRWRPPRLPRPRPRPHLRPRP", 0.039),
    ("RRIRTRPPRLPRPRPRPDLHPRP", -0.174),
    ("RRIRFRPPRLPRPRPRPVSYPRP", 0.0168),
    ("RRIRSRPPRLPRPRPRPMHNPRP", -0.179),
    ("RRIRGRPPRLPRPRPRPSTVPRP", 0.164),
    ("RRIRTRPPRLPRPRPRPGFPPRP", -0.0413),
    ("RRIRERPPRLPRPRPRPIKCPRP", -0.0487),
    ("RRIRIRPPRLPRPRPRPYAKPRP", -0.207),
    ("RRIRWRPPRLPRPRPRPPVYPRP", -0.0994),
    ("RRIRHRPPRLPRPRPRPICIPRP", -0.577),
    ("RRIRHRPPRLPRPRPRPIFNPRP", -0.447),
    ("RRIRWRPPRLPRPRPRPTWAPRP", 0.369),
    ("RRIRARPPRLPRPRPRPIHVPRP", -0.143),
    ("RRIRFRPPRLPRPRPRPGTDPRP", -0.11),
    ("RRIRLRPPRLPRPRPRPVMAPRP", 0.0839),
    ("RRIRYRPPRLPRPRPRPAAMPRP", 1.99),
    ("RRIRGRPPRLPRPRPRPFDDPRP", 0.0195),
    ("RRIRRRPPRLPRPRPRPGPWPRP", 0.523),
    ("RRIRSRPPRLPRPRPRPWDAPRP", 0.069),
    ("RRIRIRPPRLPRPRPRPGLNPRP", 1),
    ("RRIRMRPPRLPRPRPRPIYFPRP", -0.141),
    ("RRIRERPPRLPRPRPRPEALPRP", 0.0535),
    ("RRIRSRPPRLPRPRPRPHGIPRP", -0.273),
    ("RRIRNRPPRLPRPRPRPVKVPRP", -0.0708),
    ("RRIRMRPPRLPRPRPRPPISPRP", 0.163),
    ("RRIRTRPPRLPRPRPRPTCMPRP", -0.262),
    ("RRIRYRPPRLPRPRPRPQLLPRP", -0.42),
    ("RRIRGRPPRLPRPRPRPELAPRP", 2),
]
